Data provenance: patent US8592446B2

- Test system: SH-SY5Y human neuroblastoma cells
- experimental.protocol: Protection against hydrogen peroxide-induced cell death (LDH)
- Assay type: cell-based
- cond: Homo sapiens, SH-SY5Y, compound 1 h before H2O2 100 μM, 24 h, read-out: Protect. H2O2 (minimum concentration for which protection was determined)
Exercise: state measured minimal effective concentration for each of the compounds provided.
// note: answer is a bare numeric in µM

Notebook: COc1cc(C=NO)nc2c1ccc1cccnc12 , minimal effective concentration read as 0.05

Notebook: CSc1cc(C=O)nc2c1ccc1cccnc12 , minimal effective concentration read as 0.5

Notebook: O=Cc1cc(Cl)c2ccc3cccnc3c2n1 , minimal effective concentration read as 10

Notebook: COC(=O)CSc1cc(C=NO)nc2c1ccc1cccnc12 , minimal effective concentration read as 0.05

Notebook: Cc1cnc(Sc2cc(C=NO)nc3c2ccc2cccnc23)s1 , minimal effective concentration read as 5

Notebook: O=C(O)CSc1cc(C=NO)nc2c1ccc1cccnc12 , minimal effective concentration read as 0.05

Notebook: CC(C)Sc1cc(/C=N/O)nc2c1ccc1cccnc12 , minimal effective concentration read as 0.05

Notebook: ON=Cc1cc(Sc2nncs2)c2ccc3cccnc3c2n1 , minimal effective concentration read as 0.5

Notebook: Cc1nnc(Sc2cc(C=NO)nc3c2ccc2cccnc23)s1 , minimal effective concentration read as 0.05

Notebook: NCCOc1cc(/C=N/O)nc2c1ccc1cccnc12 , minimal effective concentration read as 5

* * *

- Test system: SH-SY5Y human neuroblastoma cells
- experimental.protocol: Protection against hydrogen peroxide-induced cell death (LDH)
- Assay type: cell-based
- cond: Homo sapiens, SH-SY5Y, compound 1 h before H2O2 100 μM, 24 h, read-out: Protect. H2O2 (minimum concentration for which protection was determined)
- Description: The aim of this assay is to determine the neuroprotective effect of the compounds of formula (I), when human neuroblastoma cells are exposed to oxidative stress induced by hydrogen peroxide, which is highly deleterious to the cell and its accumulation causes oxidation of cellular targets such as DNA, proteins, and lipids leading to mutagenesis and cell death. SH-SY5Y human neuroblastoma cells are seeded into 96-well culture plate at a density of 10^4 cells/well. […]
reported.endpoint: minimal effective concentration (µM)
// note: answer is a bare numeric in µM

Notebook: CSc1cc(/C=N/O)nc2c1ccc1cccnc12 , minimal effective concentration read as 0.05

Notebook: CN(C)C(=O)CSc1cc(C=NO)nc2c1ccc1cccnc12 , minimal effective concentration read as 0.1

Notebook: ON=Cc1cc(Cl)c2ccc3cccnc3c2n1 , minimal effective concentration read as 0.05

Notebook: ON=Cc1cc(Sc2nccs2)c2ccc3cccnc3c2n1 , minimal effective concentration read as 0.5

Notebook: ON=Cc1cc(SCC(F)(F)F)c2ccc3cccnc3c2n1 , minimal effective concentration read as 0.5

* * *

Exercise: state measured Tmax for each of the compounds provided.
- experimental.protocol: Screening pharmacokinetic study, plasma and brain (LC-MS/MS)
- Type: in vivo, mice (C57BL6/J)
- cond: male, C57BL6/J, mouse; mice, intravenous route, group 1-2 mg/kg (Compound 4, 8: 1.00; 7: 1.20; 10: 2.00 mg/Kg), plasma
// note: answer is a bare numeric in min

Notebook: CC(C)Sc1cc(/C=N/O)nc2c1ccc1cccnc12 [Compound 7] , Tmax read as 60

Notebook: CSc1cc(/C=N/O)nc2c1ccc1cccnc12 [Compound 4] , Tmax read as 15

Notebook: COCCOc1cc(/C=N/O)nc2c1ccc1cccnc12 [Compound 8] , Tmax read as 15

Notebook: CCN(CC)CCOc1cc(/C=N/O)nc2c1ccc1cccnc12 [Compound 10] , Tmax read as 4.8

* * *

Exercise: state measured Stoichiometry for each of the molecules provided.
- experimental.protocol: Chelating ability with Zn (II) (absorbance spectra)
- Format: physicochemical
- cond: Zn (II) complex, pH 7.4, expecting time 24 h (4, 7) or 4 h (8, 10)

Notebook: CCN(CC)CCOc1cc(/C=N/O)nc2c1ccc1cccnc12 , Stoichiometry read as 1:2 (ML2)

Notebook: CC(C)Sc1cc(/C=N/O)nc2c1ccc1cccnc12 , Stoichiometry read as 1:2 (ML2)

Notebook: CSc1cc(/C=N/O)nc2c1ccc1cccnc12 , Stoichiometry read as 1:1 (ML)

Notebook: COCCOc1cc(/C=N/O)nc2c1ccc1cccnc12 , Stoichiometry read as 1:2 (ML2)

* * *

- System: SH-SY5Y human neuroblastoma cells
- experimental.protocol: Toxicity: LDH activity release in SH-SY5Y cells
- Assay type: cell-based
- cond: at 1000 μM, 24 h
reported.endpoint: Toxic at maximum concentration tested (Yes/No)

structure.smiles.string	study.target	endpoint.value
CN(C)C(=O)CSc1cc(C=NO)nc2c1ccc1cccnc12	SH-SY5Y human neuroblastoma cells	No
Cc1cnc(Sc2cc(C=NO)nc3c2ccc2cccnc23)s1	SH-SY5Y human neuroblastoma cells	Yes
COC(=O)CSc1cc(C=NO)nc2c1ccc1cccnc12	SH-SY5Y human neuroblastoma cells	Yes
ON=Cc1cc(SCC(F)(F)F)c2ccc3cccnc3c2n1	SH-SY5Y human neuroblastoma cells	No

* * *

- Test system: SH-SY5Y cells
- experimental.protocol: Neuroprotection against Aβ25-35 toxicity (LDH assay)
- Format: cell-based
- cond: Homo sapiens, pre-treated 1 hour, 200 μM Aβ25-35 24 hours, read-out: Protect. beta-Amyloid25-35 (minimum concentration showing neuroprotection)
reported.endpoint: minimal effective concentration (µM)
// note: answer is a bare numeric in µM

Notebook: NCCOc1cc(/C=N/O)nc2c1ccc1cccnc12 , minimal effective concentration read as 5

Notebook: COC(=O)CSc1cc(C=NO)nc2c1ccc1cccnc12 , minimal effective concentration read as 10

Notebook: ON=Cc1cc(SCC(F)(F)F)c2ccc3cccnc3c2n1 , minimal effective concentration read as 5

Notebook: CCOc1cc(/C=N/O)nc2c1ccc1cccnc12 , minimal effective concentration read as 10

Notebook: O=C(O)CSc1cc(C=NO)nc2c1ccc1cccnc12 , minimal effective concentration read as 5

Notebook: CSc1cc(/C=N/O)nc2c1ccc1cccnc12 , minimal effective concentration read as 0.5

Notebook: ON=Cc1cc(Cl)c2ccc3cccnc3c2n1 , minimal effective concentration read as 10

Notebook: CCN(CC)CCOc1cc(/C=N/O)nc2c1ccc1cccnc12 , minimal effective concentration read as 0.5

Notebook: COCCOc1cc(/C=N/O)nc2c1ccc1cccnc12 , minimal effective concentration read as 0.5

Notebook: COc1cc(C=NO)nc2c1ccc1cccnc12 , minimal effective concentration read as 5

Notebook: Cc1nnc(Sc2cc(C=NO)nc3c2ccc2cccnc23)s1 , minimal effective concentration read as 10

Notebook: CN(C)C(=O)CSc1cc(C=NO)nc2c1ccc1cccnc12 , minimal effective concentration read as 10

* * *

- experimental.protocol: Screening pharmacokinetic study, plasma and brain (LC-MS/MS)
- Type: in vivo, mice (C57BL6/J)
- cond: male, C57BL6/J, mouse; mice, 200 mg/kg oral route, plasma
reported.endpoint: Cmax (ng/mL)
// note: answer is a bare numeric in ng/mL

Notebook: CSc1cc(/C=N/O)nc2c1ccc1cccnc12 , Cmax read as 931

Notebook: CC(C)Sc1cc(/C=N/O)nc2c1ccc1cccnc12 , Cmax read as 1210

Notebook: CCN(CC)CCOc1cc(/C=N/O)nc2c1ccc1cccnc12 , Cmax read as 3950

* * *

- experimental.protocol: Chelating ability with Zn (II) (absorbance spectra)
- Assay type: physicochemical
- cond: Zn (II) complex, pH 7.4, expecting time 24 h (4, 7) or 4 h (8, 10)
- Method: FIG. 8 represents the absorbance spectra of the complex Zn(II)-Compound 4. Concentration 200 μM, PBS 10 mM, pH 7.4. Concentration 180 μM, PBS 10 mM, pH 7.4. Concentration 100 μM, PBS 10 mM, pH 7.4. Concentration 20 μM, PBS 10 mM, pH 7.4. […]
Exercise: state measured Dissociation grade for each of the molecules provided.

Notebook: CSc1cc(/C=N/O)nc2c1ccc1cccnc12 , Dissociation grade read as 46 ± 7

Notebook: CCN(CC)CCOc1cc(/C=N/O)nc2c1ccc1cccnc12 , Dissociation grade read as 3.7 ± 0.6

Notebook: COCCOc1cc(/C=N/O)nc2c1ccc1cccnc12 , Dissociation grade read as 7.7 ± 0.6

Notebook: CC(C)Sc1cc(/C=N/O)nc2c1ccc1cccnc12 , Dissociation grade read as 13.4 ± 0.7

* * *

- experimental.protocol: Chelating ability with Zn (II) (absorbance spectra)
- Format: physicochemical
- cond: Zn (II) complex, pH 7.4, expecting time 24 h (4, 7) or 4 h (8, 10)
reported.endpoint: ε approx.

Notebook: CC(C)Sc1cc(/C=N/O)nc2c1ccc1cccnc12 , ε approx. read as ~840 L/mol/cm

Notebook: CCN(CC)CCOc1cc(/C=N/O)nc2c1ccc1cccnc12 , ε approx. read as ~9400 L/mol/cm

Notebook: COCCOc1cc(/C=N/O)nc2c1ccc1cccnc12 , ε approx. read as ~7100 L/mol/cm

Notebook: CSc1cc(/C=N/O)nc2c1ccc1cccnc12 , ε approx. read as ~1000 L/mol/cm
